Quick reference: pIC50 of the listed items.
Subject Of Test: human PD-L1 / Human PD-1 (Homo sapiens (Human), UniProt Q9NZQ7)
Sequence (Q9NZQ7 19-239): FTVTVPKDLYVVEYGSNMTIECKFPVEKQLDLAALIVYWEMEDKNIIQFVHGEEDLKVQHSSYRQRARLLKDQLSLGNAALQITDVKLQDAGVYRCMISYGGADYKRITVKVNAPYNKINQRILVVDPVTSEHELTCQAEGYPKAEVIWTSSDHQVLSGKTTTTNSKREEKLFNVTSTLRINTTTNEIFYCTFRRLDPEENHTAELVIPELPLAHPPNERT
Procedure Text: Enzyme-Linked Immunosorbent Assay (ELISA), PD-1/PD-L1 binding
Test Conditions: Table 3; plate-coated human PD-L1, biotinylated human PD-1; read-out: ELISA IC50
pIC50: −log10 of the molar value.

Identify the measured pIC50 of COC(=O)[C@](C)(CO)NCc1cc(Cl)c(O[C@H]2CCc3c(-c4ccc5c(c4F)OCCO5)cccc32)cc1OCc1cncc(C#N)c1 [Example 3.035] for human PD-L1 / Human PD-1 (Homo sapiens (Human), UniProt Q9NZQ7). 6.30 to 7.00

Query for human PD-L1 / Human PD-1 (Homo sapiens (Human), UniProt Q9NZQ7): what pIC50 does the record show for CS(=O)(=O)c1cc(COc2cc(O[C@H]3CCc4c(-c5ccccc5F)cccc43)c(Cl)cc2CN[C@@H](CO)C(=O)O)cc(S(C)(=O)=O)c1 [Example 3.001] ? > 7.00

pIC50 of C[C@H](NCc1cc(Cl)c(O[C@H]2CCc3c(-c4ccccc4F)cccc32)cc1OCc1cncc(C#N)c1)C(=O)N[C@@H](CO)C(=O)O [Example 3.047] on human PD-L1 / Human PD-1 (Homo sapiens (Human), UniProt Q9NZQ7)? > 7.00
